# system.under.test: Neuropeptide Y receptor type 1 (Homo sapiens); note: assay procedure not described here
# Sequence (P25929 whole entry): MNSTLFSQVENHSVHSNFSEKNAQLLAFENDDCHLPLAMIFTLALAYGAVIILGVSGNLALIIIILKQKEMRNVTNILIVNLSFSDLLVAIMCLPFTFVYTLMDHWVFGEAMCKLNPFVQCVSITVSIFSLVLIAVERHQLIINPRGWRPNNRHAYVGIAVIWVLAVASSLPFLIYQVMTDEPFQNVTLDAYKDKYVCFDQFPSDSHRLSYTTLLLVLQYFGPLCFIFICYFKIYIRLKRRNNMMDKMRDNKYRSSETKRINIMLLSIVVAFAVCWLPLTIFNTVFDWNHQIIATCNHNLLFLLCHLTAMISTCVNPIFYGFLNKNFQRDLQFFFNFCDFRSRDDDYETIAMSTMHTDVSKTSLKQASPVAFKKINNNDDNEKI
measured.property: AC50

Cc1c(OCC(F)(F)F)ccnc1C[S+]([O-])c1nc2ccccc2[nH]1 (centres undefined) ... 24.5 µM
Nc1nc(Cl)nc2c1ncn2[C@H]1C[C@H](O)[C@@H](CO)O1 ... > 30 µM
C=CCN1CCCC1CNC(=O)c1cc(S(N)(=O)=O)cc(OC)c1OC (centres undefined) [VERALIPRIDE] ... > 30 µM
NCC[C@H](O)C(=O)N[C@@H]1C[C@H](N)[C@@H](O[C@H]2O[C@H](CN)[C@@H](O)[C@H](O)[C@H]2O)[C@H](O)[C@H]1O[C@H]1O[C@H](CO)[C@@H](O)[C@H](N)[C@H]1O ... > 10 µM
COC(=O)C1=C(C)NC(C)=C(C(=O)OC(C)(C)CN(C)CCC(c2ccccc2)c2ccccc2)C1c1cccc([N+](=O)[O-])c1 (centres undefined) ... > 30 µM

[in] Would you mind telling me what AC50 value was observed for C#C[C@]1(O)CC[C@H]2[C@@H]3CCC4=Cc5oncc5C[C@]4(C)[C@H]3CC[C@@]21C ?
[out] > 10 µM

[in] Would you mind telling me what AC50 value was observed for CN1CCN(CC/C=C2/c3ccccc3Sc3ccc(S(=O)(=O)N(C)C)cc32)CC1 ?
[out] > 30 µM

[in] Would you mind telling me what AC50 value was observed for CC1(C)O[C@@H]2C[C@H]3[C@@H]4CCC5=CC(=O)C=C[C@]5(C)[C@H]4[C@@H](O)C[C@]3(C)[C@]2(C(=O)CO)O1 [DESONIDE] ?
[out] > 10 µM

[in] Would you mind telling me what AC50 value was observed for CN1C(=O)CCS(=O)(=O)C1c1ccc(Cl)cc1 (centres undefined) ?
[out] > 10 µM

[in] Would you mind telling me what AC50 value was observed for CCCc1nc(C(C)(C)O)c(C(=O)OCc2oc(=O)oc2C)n1Cc1ccc(-c2ccccc2-c2nnn[nH]2)cc1 ?
[out] > 10 µM

[in] Would you mind telling me what AC50 value was observed for CC1(C)NC(=O)N(c2ccc([N+](=O)[O-])c(C(F)(F)F)c2)C1=O [NILUTAMIDE] ?
[out] > 30 µM

[in] Would you mind telling me what AC50 value was observed for CC[C@H]1CN2CCc3cc(OC)c(OC)cc3[C@@H]2C[C@@H]1C[C@H]1NCCc2cc(OC)c(OC)cc21 ?
[out] > 30 µM

[in] Would you mind telling me what AC50 value was observed for Fc1ccc(C(c2ccccc2)(c2ccccc2F)n2ccnc2)cc1 (centres undefined) ?
[out] > 30 µM

[in] Would you mind telling me what AC50 value was observed for CNS(=O)(=O)Cc1ccc2[nH]cc(CCN(C)C)c2c1 ?
[out] > 30 µM
